Each item that follows carries a reported inhibition of hemolysis IC50.
tgt: Human C3 (Complement tech cat #A113c) (human, UniProt P01024 23-1663)
Sequence (P01024 23-1663 limits assumed): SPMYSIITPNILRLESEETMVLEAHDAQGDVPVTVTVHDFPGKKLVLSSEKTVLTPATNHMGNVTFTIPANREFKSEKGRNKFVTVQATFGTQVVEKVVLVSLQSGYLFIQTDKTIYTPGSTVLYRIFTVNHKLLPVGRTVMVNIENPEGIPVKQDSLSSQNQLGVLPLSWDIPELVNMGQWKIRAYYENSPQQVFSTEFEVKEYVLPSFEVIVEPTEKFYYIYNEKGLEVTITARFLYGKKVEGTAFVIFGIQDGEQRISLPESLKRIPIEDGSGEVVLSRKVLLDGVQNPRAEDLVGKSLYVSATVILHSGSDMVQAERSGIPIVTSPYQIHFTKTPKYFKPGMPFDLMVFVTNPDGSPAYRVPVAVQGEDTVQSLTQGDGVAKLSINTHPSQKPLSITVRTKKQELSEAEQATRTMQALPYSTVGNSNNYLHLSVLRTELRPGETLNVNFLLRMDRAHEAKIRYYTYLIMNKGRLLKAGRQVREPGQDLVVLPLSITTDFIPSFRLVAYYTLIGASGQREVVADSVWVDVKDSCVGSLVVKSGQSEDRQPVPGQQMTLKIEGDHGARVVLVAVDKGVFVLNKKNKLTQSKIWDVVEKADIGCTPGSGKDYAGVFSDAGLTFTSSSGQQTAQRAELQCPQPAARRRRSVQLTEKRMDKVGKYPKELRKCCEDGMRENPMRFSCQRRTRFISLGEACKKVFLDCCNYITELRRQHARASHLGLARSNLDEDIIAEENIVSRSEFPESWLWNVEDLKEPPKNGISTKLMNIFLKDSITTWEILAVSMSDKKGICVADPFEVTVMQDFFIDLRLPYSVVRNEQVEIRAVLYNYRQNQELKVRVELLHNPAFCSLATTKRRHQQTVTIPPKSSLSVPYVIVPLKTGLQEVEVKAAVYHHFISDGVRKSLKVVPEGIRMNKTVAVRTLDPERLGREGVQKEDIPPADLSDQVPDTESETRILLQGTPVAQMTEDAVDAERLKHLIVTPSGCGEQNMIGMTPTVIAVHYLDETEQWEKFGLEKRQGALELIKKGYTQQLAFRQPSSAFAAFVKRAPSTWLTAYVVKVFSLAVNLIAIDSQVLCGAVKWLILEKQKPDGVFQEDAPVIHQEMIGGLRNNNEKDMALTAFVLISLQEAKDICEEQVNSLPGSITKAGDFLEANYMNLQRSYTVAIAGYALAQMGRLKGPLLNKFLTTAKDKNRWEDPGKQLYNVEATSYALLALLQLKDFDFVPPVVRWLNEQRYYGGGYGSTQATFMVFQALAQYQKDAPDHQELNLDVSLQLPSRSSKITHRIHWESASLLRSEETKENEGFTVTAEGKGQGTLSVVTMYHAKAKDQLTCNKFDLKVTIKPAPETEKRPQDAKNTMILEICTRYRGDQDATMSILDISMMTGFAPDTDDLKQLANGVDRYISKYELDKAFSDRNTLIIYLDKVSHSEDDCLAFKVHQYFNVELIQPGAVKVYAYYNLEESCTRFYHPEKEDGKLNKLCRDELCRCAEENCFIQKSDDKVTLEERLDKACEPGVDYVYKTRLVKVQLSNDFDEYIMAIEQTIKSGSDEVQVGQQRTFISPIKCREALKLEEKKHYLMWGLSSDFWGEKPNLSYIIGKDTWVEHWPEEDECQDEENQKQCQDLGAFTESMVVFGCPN
assay_overview: cell-based or functional assay
Positions of bridges follow the written chain, without caps; N, C: chain ends. Non-standard residues stand in square brackets, D forms with d. Trp(1-Me) = Cn1cc(C[C@H](N)C(=O)O)c2ccccc21; 2Nal = N[C@@H](Cc1ccc2ccccc2c1)C(=O)O; NMeI = CC[C@H](C)[C@H](NC)C(=O)O; AEEA = NCCOCCOCC(=O)O; Sar = CNCC(=O)O

inhibition of hemolysis IC50 reading for Ac-FCI[2Nal]QDWGEHRCTGAES-NH2 (disulfide 2-12; SMILES CC[C@H](C)[C@@H]1NC(=O)[C@@H](NC(=O)[C@H](Cc2ccccc2)NC(C)=O)CSSC[C@@H](C(=O)N[C@H](C(=O)NCC(=O)N[C@@H](C)C(=O)N[C@@H](CCC(=O)O)C(=O)N[C@@H](CO)C(N)=O)[C@@H](C)O)NC(=O)[C@H](CCCNC(=N)N)NC(=O)[C@H](Cc2c[nH]cn2)NC(=O)[C@H](CCC(=O)O)NC(=O)CNC(=O)[C@H](Cc2c[nH]c3ccccc23)NC(=O)[C@H](CC(=O)O)NC(=O)[C@H](CCC(N)=O)NC(=O)[C@H](Cc2ccc3ccccc3c2)NC1=O) [Compound 64] : < 100 nM

Next:
The binder identified as H-[dY]ICI[Trp(1-Me)]QDW[Sar]AHRC[NMeI]-NH2 (disulfide 3-13; SMILES CC[C@H](C)[C@H](NC(=O)[C@H](N)Cc1ccc(O)cc1)C(=O)N[C@H]1CSSC[C@@H](C(=O)N(C)[C@H](C(N)=O)[C@@H](C)CC)NC(=O)[C@H](CCCNC(=N)N)NC(=O)[C@H](Cc2c[nH]cn2)NC(=O)[C@H](C)NC(=O)CN(C)C(=O)[C@H](Cc2c[nH]c3ccccc23)NC(=O)[C@H](CC(=O)O)NC(=O)[C@H](CCC(N)=O)NC(=O)[C@H](Cc2cn(C)c3ccccc23)NC(=O)[C@H]([C@@H](C)CC)NC1=O) [Compound 48] registered its inhibition of hemolysis IC50 at < 100 nM

// inhibition of hemolysis IC50 lookup, binder = Ac-SEFCI[Trp(1-Me)]QEWGEHRC[Sar]EGE-{AEEA-AEEA-K(γGlu-Gly-γGlu-17-carboxy-heptadecanoyl)-NH2} (disulfide 4-14) [Compound 124] , result: < 100 nM

For record Ac-SEFCI[Trp(1-Me)]QDWGEHKC[Sar]EA-NH2 (disulfide 4-14; SMILES CC[C@H](C)[C@@H]1NC(=O)[C@@H](NC(=O)[C@H](Cc2ccccc2)NC(=O)[C@H](CCC(=O)O)NC(=O)[C@H](CO)NC(C)=O)CSSC[C@@H](C(=O)N(C)CC(=O)N[C@@H](CCC(=O)O)C(=O)N[C@@H](C)C(N)=O)NC(=O)[C@H](CCCCN)NC(=O)[C@H](Cc2c[nH]cn2)NC(=O)[C@H](CCC(=O)O)NC(=O)CNC(=O)[C@H](Cc2c[nH]c3ccccc23)NC(=O)[C@H](CC(=O)O)NC(=O)[C@H](CCC(N)=O)NC(=O)[C@H](Cc2cn(C)c3ccccc23)NC1=O) [Compound 86] the listed inhibition of hemolysis IC50 is < 100 nM
